Target: SARS-COV-2 RBD extracellular domain expressed with a C-terminal mouse IgG2a Fc (SARS-CoV-2)
Experiment: Biacore SPR, mAb captured on anti-hFc, 25 C
readout-kind: kon (M⁻¹ s⁻¹)
Give bare numbers, in M⁻¹ s⁻¹.

binder	scale-unit	kon
mAb15159 (antibody, V domains shown) VH: EVQLVESGGGLVQPGGSLRLSCAASGITVSSNYMTWVRQAPGKGLEWVSLIYSGGSTFYADSVRGRFTISRDNSKNTLYLQMNSLRAEDTAVYYCARDLVVYGMDVWGQGTTVTVSS VL: DIQLTQSPSSLSASVGDRVTITCRASQGISSYLAWYQQKPGKAPKLLIYAASTLQSGVPSRFSGSGSGTDFTLTISSLQPEDFATYYCQHLNSDPHTFGQGTKLEIKR	M⁻¹ s⁻¹	691000
mAb14232 (antibody, V domains shown) VH: QITLKESGPTLVKPTQTLTLTCTFSGFSLSASGVGVGWIRQPPGKALEWLALIYWDDDKRYSPSLKSRLTITKDTSKNQVVLTMTNMDPVDTATYYCAQHKVATIFDYWGQGTLVTVSS VL: QSALTQPPSASGSPGQSVTISCTATSSDVGNYNYVSWYQQHPGKAPKLMIYEVTKRPSGVPDRFSGSKSGNTASLTVSGLQAEDEADYYCSSYAGSWGVFGGGTKLTVLG	M⁻¹ s⁻¹	1.97e+06
mAb14282 (antibody, V domains shown) VH: QVQLVQSGAEVKKPGASVKVSCKASGYIFTDHYMHWVRQAPGQGLEWMGWINPNSGATNYAQNFQGRVTMTRDTSIITVYMELSRLRSDDTAVYYCARDSSPYMIRYTMDVWGQGTTITVSS VL: QSALTQPASVSGSPGQSITISCTGTSSDVGSYNLVSWYQQHPGKAPKLMIYELTKRPSGVSNRFSGSKSGNTASLTISGLQAEDEADYYCSSYRGSVTDVVFGGGTKLTVLG	M⁻¹ s⁻¹	2.17e+06
mAb14294 (antibody, V domains shown) VH: EVQLVESGGGLVQPGGSLRLSCAASGFTFSNHWMDWVRQAPGKGLVWVSRINSDGSSTDYADSVRGRFTMSRDNAKNTLYLQMSSLRAEDTAVYYCAREGMIFGAVIIPGWYFDLWGRGALVTVSS VL: EIVLTQSPGTLSLSPGERATLSCRASQSVSSSQLAWYQQKPGQAPRLLIYGASSRATGIPDRFSGSGSGTDFTLTISRLEPEDFAVYYCQQYDSFGQGTKLEIKR	M⁻¹ s⁻¹	911000

Task: Dear colleague, I am looking for the recorded kon of the following binder: mAb14258 (antibody, V domains shown) VH: QLQLQESGPGLVKPSETLSLICTGSGDSISSSHYYWGWIRQPPGKGLEWIGSTYFSGSTYYNPSLKSRVSISVDTSKNQVSLKLISVTAADTAVYYCAREMGATLGDYWGPGTLVTVSS VL: QSVLTQPPSASGTPGQRVTISCSGSSSNIGNNYVYWYQQFPGTTPRLLIYRNNERPSGVPDRFSGSKSGTSASLVISGLRSEDEADYYCAAWDDSLSAHYVFGTGTKVTVLG
Result: 35600
